assay_comment: Cell viability / cytotoxicity, LDH assay in mouse peritoneal cells
Assay type: cell-based
measurement_conditions: C57BL6, mouse
Would you mind telling me the reported CC50 at 22 h of each entry?
Answers are plain numbers, in µM.

{"compound": "CC1CCC2(OC1)OC1CC3C4CC(O)C5CC(OC6OC(CO)C(OC7OC(CO)C(O)C(OC8OCC(O)C(O)C8O)C7OC7OC(CO)C(O)C(OC8OC(CO)C(O)C(O)C8O)C7O)C(O)C6O)C(O)CC5(C)C4CCC3(C)C1C2C (stereo not shown)", "output_unit": "µM", "quantitative_result": 7.21}
{"compound": "C[C@@H]1CC[C@@]2(OC1)O[C@H]1CC3C4C[C@@H](O)C5C[C@@H](O[C@@H]6O[C@H](CO)[C@H](O[C@@H]7O[C@H](CO)[C@@H](O)[C@H](O[C@@H]8OC[C@@H](O)[C@H](O)[C@H]8O)[C@H]7O[C@@H]7O[C@H](CO)[C@@H](O)[C@H](O)[C@H]7O)[C@H](O)[C@H]6O)[C@H](O)C[C@]5(C)C4CC[C@]3(C)C1[C@@H]2C (stereo partly shown) [Compound 1, aginoside]", "output_unit": "µM", "quantitative_result": 11.1}

# context switch: different compound, same CC50 at 22 h
Prompt line: Provide measured CC50 at 22 h value, entry: C[C@@H]1CC[C@@]2(OC1)O[C@H]1CC3C4CCC5C[C@@H](O[C@@H]6O[C@H](CO)[C@H](O[C@@H]7O[C@H](CO)[C@@H](O)[C@H](O[C@@H]8OC[C@@H](O)[C@H](O)[C@H]8O)[C@H]7O[C@@H]7O[C@H](CO)[C@@H](O)[C@H](O)[C@H]7O)[C@H](O)[C@H]6O)[C@H](O)C[C@]5(C)C4CC[C@]3(C)C1[C@@H]2C (stereo partly shown) [Compound 2, 6-deoxy-aginoside]
Response line: 5.7

Data origin: paper PMC8587756
